# System tested: beta-catenin/TCF4 engagement (Homo sapiens, UniProt P35222)
# Construct: expressed in transfected cells; host or cells: HEK293
# Sequence (P35222 1-781): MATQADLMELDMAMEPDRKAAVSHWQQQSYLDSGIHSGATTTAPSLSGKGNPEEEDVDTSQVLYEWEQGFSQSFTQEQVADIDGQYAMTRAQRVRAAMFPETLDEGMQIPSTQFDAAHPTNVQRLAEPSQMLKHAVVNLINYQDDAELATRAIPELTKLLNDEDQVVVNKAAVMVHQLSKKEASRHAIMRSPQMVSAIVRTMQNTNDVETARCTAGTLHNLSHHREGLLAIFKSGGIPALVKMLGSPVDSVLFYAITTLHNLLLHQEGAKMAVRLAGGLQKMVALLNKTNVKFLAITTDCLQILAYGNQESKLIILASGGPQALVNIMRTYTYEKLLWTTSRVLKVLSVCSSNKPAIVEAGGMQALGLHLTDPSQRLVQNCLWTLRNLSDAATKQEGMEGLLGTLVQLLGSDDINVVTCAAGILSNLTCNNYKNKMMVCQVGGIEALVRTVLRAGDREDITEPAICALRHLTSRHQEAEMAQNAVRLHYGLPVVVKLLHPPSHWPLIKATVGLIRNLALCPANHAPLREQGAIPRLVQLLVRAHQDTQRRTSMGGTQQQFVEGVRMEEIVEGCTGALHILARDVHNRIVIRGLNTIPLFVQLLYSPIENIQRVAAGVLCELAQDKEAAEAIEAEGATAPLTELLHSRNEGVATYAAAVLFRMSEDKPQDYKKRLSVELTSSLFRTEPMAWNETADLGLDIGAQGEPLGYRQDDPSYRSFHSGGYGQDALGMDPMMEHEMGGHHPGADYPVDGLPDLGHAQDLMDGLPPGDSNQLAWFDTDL
# Assay protocol: Nano-BRET target engagement assay (B-cat-Halo & TCF4-Luc in HEK293 cells)
# Type: cell-based
# Setup conditions: absolute IC50; read-out: NanoBRET Abs IC50
Measurement label: IC50 (µM)
Numbers only here, please. The scale is µM.

// IC50 lookup, compound = CC(=O)N1CCC[C@]12CC=CCCCC1(CCCC=CCCCOC(=O)N3CC[C@@](C(=O)N[C@@H](Cc4ccccc4C(F)(F)F)C(=O)N[C@@H](Cc4csc5ccccc45)C(=O)N[C@@H](CC(=O)N4CCOCC4)C(N)=O)(C3)NC(=O)[C@H](CC(C)C)NC(=O)[C@H](Cc3ccccc3)NC(=O)[C@H](C)NC(=O)[C@H](C)NC(=O)[C@H](Cc3cccc(C(=O)O)c3)NC(=O)[C@H](CC(=O)O)NC1=O)NC(=O)[C@H](CC(C)(C)C)NC(=O)[C@H](CC(=O)O)NC2=O (some centres unmarked) [I-1614] , result: 6.4

###

# System tested: full-length beta-Catenin (Uniprot ID P35222) (Homo sapiens)
# Construct: 10 nM full-length beta-Catenin (Uniprot ID P35222)
# Assay protocol: Fluorescence polarization IC50 (beta-catenin / 5FAM-TCF4 10-53 competition)
# Type: binding
# Setup conditions: fluorescence polarization; read-out: beta-Catenin FP IC50
pIC50: −log10 of the molar value.
Binary classification by pIC50, with 7 as an inclusive lower bound for y; all other cases are n.

Worked examples, 4 compounds total:
>>> class_label("CCCC[C@@H]1NC(=O)[C@H](Cc2cccc(C(=O)O)c2)NC(=O)[C@H](CC(=O)O)NC(=O)C2(CCCC=CCCCOC(=O)N3CC[C@@](C(=O)N[C@@H](Cc4ccccc4Cl)C(=O)N[C@@H](Cc4csc5ccccc45)C(=O)N[C@@H](CCC(N)=O)C(N)=O)(C3)NC(=O)[C@H](CC(C)C)NC(=O)[C@H](Cc3ccccc3)NC(=O)[C@H](C)NC1=O)CCCC=CC[C@]1(CCCN1C(C)=O)C(=O)N[C@@H](CC(=O)O)C(=O)N[C@@H](CC(C)(C)C)C(=O)N2 (some centres unmarked)")
"y"
>>> class_label("CC(=O)N1CCC[C@]12CC=CCCCC1(CCCC=CCCCCCC[C@@](C)(C(=O)N[C@@H](Cc3cccc(F)c3)C(=O)N[C@@H](Cc3csc4ccccc34)C(=O)N[C@@H](CCC(N)=O)C(N)=O)NC(=O)[C@H](C(C)C)NC(=O)[C@H](Cc3ccccc3)NC(=O)[C@H](C)NC(=O)[C@H](C)NC(=O)[C@H](Cc3cccs3)NC(=O)[C@H](CC(=O)O)NC1=O)NC(=O)[C@H](C)NC(=O)[C@H](CC(=O)O)NC2=O (some centres unmarked)")
"n"
>>> class_label("CC(=O)N1CCC[C@]12CC=CCCCC1(CCCC=CCCCOC(=O)N3CC[C@@](C(=O)N[C@@H](Cc4ccsc4)C(=O)N[C@@H](Cc4ccc5c(c4)CCC5)C(=O)N[C@@H](C)C(N)=O)(C3)NC(=O)[C@H](C(C)C)NC(=O)[C@H](Cc3ccccc3)NC(=O)[C@H](C)NC(=O)[C@H](CCC(N)=O)NC(=O)[C@H](Cc3cccc(C(=O)O)c3)NC(=O)[C@H](CC(=O)O)NC1=O)NC(=O)[C@H](CC(C)(C)C)NC(=O)[C@H](CC(=O)O)NC2=O (some centres unmarked)")
"y"
>>> class_label("CC(=O)N1CCC[C@]12CC=CCCCC1(CCCC=CCCCCCC[C@@](C)(C(=O)N[C@@H](Cc3ccccc3)C(=O)N[C@@H](Cc3csc4ccccc34)C(=O)N[C@@H](CCC(N)=O)C(N)=O)NC(=O)[C@H](CCC(N)=O)NC(=O)[C@H](Cc3ccccc3)NC(=O)[C@H](C)NC(=O)[C@H](C)NC(=O)[C@H](CCC(=O)O)NC(=O)[C@H](CC(=O)O)NC1=O)NC(=O)[C@H](CCO)NC(=O)[C@H](CC(=O)O)NC2=O (some centres unmarked) [I-1545]")
"y"

Let's switch to this compound now.
Problem: State whether the measured pIC50 reaches 7, counting equality as reaching it, for CC(=O)N1CCC[C@]12CC=CCCCC1(CCCC=CCCCCCC[C@@](C)(C(=O)N[C@@H](Cc3ccccc3)C(=O)N[C@@H](Cc3csc4ccccc34)C(=O)N[C@@H](CCC(N)=O)C(=O)N[C@@H](C)C(N)=O)NC(=O)[C@H](CC(N)=O)NC(=O)[C@H](Cc3ccccc3)NC(=O)[C@H](C)NC(=O)[C@H](C)NC(=O)[C@H](CCC(=O)O)NC(=O)[C@H](CC(=O)O)NC1=O)NC(=O)[C@H](CC(C)C)NC(=O)[C@H](CC(=O)O)NC2=O (some centres unmarked) [I-729]
Result: y
